Literature compilation of IC50 measurements on Retinol-binding protein 4 (Homo sapiens, UniProt P02753).
readout-kind: IC50 (nM)

O=C(c1cn2cccnc2n1)N1C[C@H]2C[C@@H](c3ccccc3OC(F)(F)F)C[C@H]2C1 :: 78.4
O=C(O)Cc1csc(-c2cc(C(F)F)cc(C(F)(F)F)c2)n1 :: 134

P. CS(=O)(=O)c1ccc(NC(=O)N2CCC(c3ccccc3C(F)(F)F)CC2)c(C(=O)O)c1
Q. O=C(O)Cc1coc(-c2cc(C(F)(F)F)ccc2Cl)n1
Could you kindly indicate whether P or Q has the higher IC50 value? Respond with the label that goes with your answer.
Q

---

Literature compilation of IC50 measurements on Retinol-binding protein 4 (Homo sapiens).
readout-kind: IC50 (nM)

Solved entries:
O=C(O)c1nc(-c2cc(C(F)(F)F)cc(C(F)(F)F)c2)cs1 :: 1060
Cc1oc(CC(=O)O)nc1-c1cc(C(F)(F)F)cc(C(F)(F)F)c1 :: 1590
O=C(O)Cc1csc(-c2cc(C(F)(F)F)ccc2Cl)n1 :: 1050

a. COC(=O)c1cc(C)nc(N2C[C@@H]3CN(c4ccccc4C(F)(F)F)C[C@@H]3C2)n1
b. O=C(c1nc2ncc(CCO)cn2n1)N1C[C@@H]2CN(c3cc(F)ccc3C(F)(F)F)C[C@@H]2C1
Could you determine which record has the numerically smaller IC50? Candidates: a and b Respond with the label that goes with your answer.
a
(a: 3.9 nM, b: 37 nM)

---

Literature compilation of pIC50 measurements on Retinol-binding protein 4 (Homo sapiens, UniProt P02753).
pIC50: −log10 of the molar value.
readout-kind: pIC50

Cc1ccn2c(C(=O)N3C[C@H]4C[C@@H](c5ccccc5OC(F)(F)F)C[C@H]4C3)nnc2n1 :: 7.08
Cc1sc(CC(=O)O)nc1-c1cc(C(F)(F)F)cc(C(F)(F)F)c1 :: 6.63
COc1cc(C(=O)O)nc(N2C[C@H]3C[C@@H](c4ccccc4C(F)(F)F)C[C@H]3C2)n1 :: 7.84
O=C(O)c1cnccc1NC(=O)N1CCC(c2ccccc2C(F)(F)F)CC1 :: 7.70
COc1cc(-c2nc(CC(=O)O)cs2)cc(C(F)(F)F)c1 :: 7.06
Cc1cc(C)n2nc(C(=O)N3C[C@H]4C[C@@H](c5ccccc5C(F)(F)F)C[C@H]4C3)nc2n1 :: 6.97

A. O=C(c1nc2ncc(CCCl)cn2n1)N1C[C@H]2C[C@@H](c3ccccc3C(F)(F)F)C[C@H]2C1
B. CC/C=C\C/C=C\C/C=C\C/C=C\C/C=C\C/C=C\CCC(=O)O
C. FC(F)(F)c1cc(-c2nc(Cc3nn[nH]n3)cs2)ccc1Cl
# rank_down: sort by pIC50, max first Return value: ordered labels per request.
A, C, B
(A: 7.17, C: 6.71, B: 4.30)

A. O=C(O)Cc1cc(-c2ccc(Cl)c(C(F)(F)F)c2)no1
B. Cc1cc(C(=O)O)nc(N2C[C@H]3C[C@@H](c4ccccc4C(F)(F)F)C[C@H]3C2)c1
Could you kindly indicate whether A or B has the higher pIC50 value? Respond with the label that goes with your answer.
B
(B: 7.85, A: 6.55)
